# target_or_system: EGFR* (recombinant extracellular domain of human EGFR) (human, UniProt P00533 25-645)
# protocol_description: BLI; kon 4.3e5 M-1 s-1; koff 61e-4 s-1; BLI buffer and temperature not in the material; aptamers folded at 1 uM in PBS with 5 mM MgCl2 (95 C 5 min, slow cooling); ACCO assembled in PBS + 5 mM MgCl2 or Tris-HCl pH 7.4, 50 mM NaCl, 10 mM KCl, 5 mM MgCl2
# condition_label: protein: recombinant; imperfect hairpin (predicted)
property: Kd (nM)

[[record]]
binder = "ACGCACCATTTGTTTAATATGTTTTTTAATTCCCCTTGTGGTGTGT (ssDNA) [GR20]"
property = "Kd"
data_value = 14.2

